The measurements presented in this section are drawn from paper PMC6111440.

Reported pIC50 values for the following compounds.
Target of assay: Human CDK1/B (Homo sapiens)
Sequence (P06493 whole entry): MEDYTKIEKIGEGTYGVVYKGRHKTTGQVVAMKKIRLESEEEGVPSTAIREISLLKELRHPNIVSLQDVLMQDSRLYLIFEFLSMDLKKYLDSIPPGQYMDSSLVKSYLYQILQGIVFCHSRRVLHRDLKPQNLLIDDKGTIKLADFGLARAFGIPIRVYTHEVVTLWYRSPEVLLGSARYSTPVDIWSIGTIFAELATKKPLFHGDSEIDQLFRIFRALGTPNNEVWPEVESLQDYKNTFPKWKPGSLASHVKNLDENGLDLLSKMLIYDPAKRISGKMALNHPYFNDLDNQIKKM
Sequence (P14635 whole entry partner): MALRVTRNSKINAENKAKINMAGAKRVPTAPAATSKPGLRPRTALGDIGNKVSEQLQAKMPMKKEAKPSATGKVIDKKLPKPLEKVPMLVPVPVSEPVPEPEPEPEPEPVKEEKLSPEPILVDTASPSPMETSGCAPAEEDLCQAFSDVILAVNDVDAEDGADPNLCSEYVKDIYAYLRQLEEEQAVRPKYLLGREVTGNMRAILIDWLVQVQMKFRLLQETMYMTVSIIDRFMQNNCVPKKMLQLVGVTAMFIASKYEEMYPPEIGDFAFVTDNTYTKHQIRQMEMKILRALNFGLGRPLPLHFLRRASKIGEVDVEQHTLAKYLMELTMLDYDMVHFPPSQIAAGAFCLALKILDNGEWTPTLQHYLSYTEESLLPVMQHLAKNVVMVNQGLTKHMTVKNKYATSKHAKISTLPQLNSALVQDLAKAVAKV
Conditions: read-out: CDK1/B IC50; Table 2; ATP 12.5 μM
Quick note: pIC50 values are minus log10 of concentrations in mol/L.

{"columns": ["Compound", "Target of assay", "Endpoint value"],
 "data": [
  ["NS(=O)(=O)c1ccc(Nc2nc(-c3ccccc3)c3nc[nH]c3n2)cc1 [Compound 70]", "Human CDK1/B (Homo sapiens)", 6.14],
  ["NS(=O)(=O)c1ccc(Nc2nc(-c3cccc(-c4ccccc4)c3)c3nc[nH]c3n2)cc1 [Compound 73]", "Human CDK1/B (Homo sapiens)", 4.07],
  ["CCC(C)Oc1nc(Nc2ccc(S(N)(=O)=O)cc2)nc2[nH]cnc12 (racemic) [Compound 34]", "Human CDK1/B (Homo sapiens)", 7.01]
]}

Query: Determine its reported pIC50: NS(=O)(=O)c1ccc(Nc2ncc3nc[nH]c3n2)cc1 [Compound 13, 4-(9H-Purin-2-ylamino)benzenesulfonamide]
Response: 4.80

---

Target of assay: CDK5 (Homo sapiens)
Sequence (Q00535 whole entry, species assumed): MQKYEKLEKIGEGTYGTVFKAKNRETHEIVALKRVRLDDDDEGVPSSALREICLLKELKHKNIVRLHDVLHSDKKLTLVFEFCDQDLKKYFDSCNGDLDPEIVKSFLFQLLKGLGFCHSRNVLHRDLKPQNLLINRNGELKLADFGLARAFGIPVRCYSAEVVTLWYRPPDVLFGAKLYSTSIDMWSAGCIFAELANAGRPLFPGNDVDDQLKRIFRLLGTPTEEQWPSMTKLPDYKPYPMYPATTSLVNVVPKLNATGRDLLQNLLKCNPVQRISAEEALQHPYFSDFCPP
Sequence (Q15078 99-307 partner limits assumed, species assumed): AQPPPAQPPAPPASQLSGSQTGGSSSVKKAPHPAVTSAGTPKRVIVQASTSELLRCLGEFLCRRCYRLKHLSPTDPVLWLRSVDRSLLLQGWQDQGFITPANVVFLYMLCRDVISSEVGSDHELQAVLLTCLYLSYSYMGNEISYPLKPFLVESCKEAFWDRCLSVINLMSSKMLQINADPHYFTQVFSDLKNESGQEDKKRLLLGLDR
Protocol summary: biochemical
Conditions: read-out: CDK5 Inhibition at 10 μM (%)
Observable: inhibition at 10 µM (%)
Report as a plain number; the unit % is understood.

{"columns": ["Smiles record", "Unit string", "inhibition at 10 µM"],
 "data": [
  ["Nc1nc(OCC2CCCCC2)c2cc[nH]c2n1", "%", 12],
  ["Nc1nc(OCC2CCCCC2)c2cn[nH]c2n1", "%", 14],
  ["Nc1nc(OCC2CCCCC2)c2nn[nH]c2n1", "%", 13]
]}

Query: Determine its reported inhibition at 10 µM: NS(=O)(=O)c1ccc(Nc2cc(OCC3CCCCC3)c3nc[nH]c3n2)cc1
Response: 37

---

Target of assay: CDK2/A (Homo sapiens)
Conditions: read-out: CDK2 Inhibition IC50; Table 1; ATP 12.5 μM
Observable: IC50 (nM)
Report as a plain number; the unit nM is understood.

{"columns": ["Compound", "Unit string", "Endpoint value"],
 "data": [
  ["CCc1nc(Nc2ccc(S(N)(=O)=O)cc2)nc2[nH]cnc12 [Compound 52]", "nM", 220],
  ["CC(C)[Si](C#Cc1nc(Nc2ccc(S(N)(=O)=O)cc2)nc2[nH]cnc12)(C(C)C)C(C)C [Compound 40]", "nM", 17],
  ["COc1cccc(-c2nc(Nc3ccc(S(N)(=O)=O)cc3)nc3[nH]cnc23)c1 [Compound 71]", "nM", 39]
]}

Query: Determine its reported IC50: c1ccc(Nc2ncc3nc[nH]c3n2)cc1 [Compound 12, Phenyl-(9H-purin-2-yl)amine]
Response: 61000

---

Reported inhibition at 10 µM values for the following compounds.
Target of assay: CDK9/T (Homo sapiens)
Sequence (P50750 whole entry): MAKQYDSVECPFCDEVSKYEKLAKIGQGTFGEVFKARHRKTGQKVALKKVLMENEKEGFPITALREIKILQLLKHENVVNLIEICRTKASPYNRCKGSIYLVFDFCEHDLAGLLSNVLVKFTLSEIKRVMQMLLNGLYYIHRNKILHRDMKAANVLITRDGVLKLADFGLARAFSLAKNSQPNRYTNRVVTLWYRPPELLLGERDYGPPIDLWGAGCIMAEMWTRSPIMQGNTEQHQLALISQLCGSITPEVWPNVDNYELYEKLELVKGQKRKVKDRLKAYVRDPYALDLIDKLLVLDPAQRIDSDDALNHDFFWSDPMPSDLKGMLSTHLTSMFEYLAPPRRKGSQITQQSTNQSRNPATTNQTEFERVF
Sequence (O60563 whole entry partner): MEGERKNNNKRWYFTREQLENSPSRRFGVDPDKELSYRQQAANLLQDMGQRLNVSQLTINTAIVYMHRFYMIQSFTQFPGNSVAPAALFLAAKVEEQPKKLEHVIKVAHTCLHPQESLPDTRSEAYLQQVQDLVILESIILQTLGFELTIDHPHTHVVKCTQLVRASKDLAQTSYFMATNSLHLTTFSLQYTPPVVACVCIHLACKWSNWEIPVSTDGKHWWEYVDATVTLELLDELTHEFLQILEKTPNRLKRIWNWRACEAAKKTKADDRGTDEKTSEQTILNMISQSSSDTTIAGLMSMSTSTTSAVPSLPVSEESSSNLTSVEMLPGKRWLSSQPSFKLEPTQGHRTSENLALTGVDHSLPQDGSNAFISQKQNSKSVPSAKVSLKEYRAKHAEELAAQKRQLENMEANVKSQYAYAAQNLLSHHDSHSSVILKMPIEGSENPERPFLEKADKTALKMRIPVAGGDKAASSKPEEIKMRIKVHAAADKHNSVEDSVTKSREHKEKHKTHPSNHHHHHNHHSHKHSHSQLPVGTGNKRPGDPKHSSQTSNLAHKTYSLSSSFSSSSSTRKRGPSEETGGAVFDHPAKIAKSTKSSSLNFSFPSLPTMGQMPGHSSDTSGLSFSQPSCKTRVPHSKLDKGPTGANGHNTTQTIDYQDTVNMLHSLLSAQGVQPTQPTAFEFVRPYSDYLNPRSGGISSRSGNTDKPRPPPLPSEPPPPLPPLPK
Protocol summary: biochemical
Conditions: read-out: CDK9 Inhibition at 10 μM (%)
For clarity, give the value followed by its unit.

Query: Determine its reported inhibition at 10 µM: Nc1nc(OCC2CCCCC2)c2cc[nH]c2n1
Response: 0%

Query: Determine its reported inhibition at 10 µM: Nc1nc(OCC2CCCCC2)c2nn[nH]c2n1
Response: 16%

Query: Determine its reported inhibition at 10 µM: Nc1nc(OCC2CCCCC2)c2cn[nH]c2n1
Response: 16%

Query: Determine its reported inhibition at 10 µM: NS(=O)(=O)c1ccc(Nc2cc(OCC3CCCCC3)c3nc[nH]c3n2)cc1
Response: 42%

---

Target of assay: CDK7/H (Homo sapiens)
Sequence (P50613 whole entry): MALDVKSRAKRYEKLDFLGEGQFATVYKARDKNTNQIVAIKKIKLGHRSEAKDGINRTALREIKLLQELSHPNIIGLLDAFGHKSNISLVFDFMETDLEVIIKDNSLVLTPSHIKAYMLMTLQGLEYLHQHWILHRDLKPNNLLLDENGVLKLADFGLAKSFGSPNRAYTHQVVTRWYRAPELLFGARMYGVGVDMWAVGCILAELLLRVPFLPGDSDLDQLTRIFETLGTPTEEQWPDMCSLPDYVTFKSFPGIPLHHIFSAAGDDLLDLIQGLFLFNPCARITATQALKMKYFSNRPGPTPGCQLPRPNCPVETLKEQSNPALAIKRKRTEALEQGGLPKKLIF
Sequence (P51946 whole entry partner): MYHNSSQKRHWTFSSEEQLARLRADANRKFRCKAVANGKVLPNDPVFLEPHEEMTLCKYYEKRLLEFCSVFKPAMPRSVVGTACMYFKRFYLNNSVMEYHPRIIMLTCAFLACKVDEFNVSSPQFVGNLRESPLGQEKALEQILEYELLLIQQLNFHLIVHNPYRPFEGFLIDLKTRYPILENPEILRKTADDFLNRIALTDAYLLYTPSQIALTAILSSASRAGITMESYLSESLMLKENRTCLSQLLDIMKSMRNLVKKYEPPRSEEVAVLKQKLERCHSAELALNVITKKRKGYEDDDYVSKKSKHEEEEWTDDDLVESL
Sequence (P51948 whole entry partner): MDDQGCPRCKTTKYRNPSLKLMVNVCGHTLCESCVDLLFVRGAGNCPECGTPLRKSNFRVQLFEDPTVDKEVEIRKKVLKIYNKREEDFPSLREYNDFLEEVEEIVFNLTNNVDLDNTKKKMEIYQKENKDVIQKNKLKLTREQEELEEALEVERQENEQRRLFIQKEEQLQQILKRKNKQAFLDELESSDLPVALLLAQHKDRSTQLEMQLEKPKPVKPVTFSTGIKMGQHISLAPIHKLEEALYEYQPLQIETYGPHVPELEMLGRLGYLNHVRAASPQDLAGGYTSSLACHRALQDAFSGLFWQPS
Protocol summary: biochemical
Conditions: read-out: CDK7 Inhibition at 10 μM (%)
Reported inhibition at 10 µM values for the following molecules.

Below, each entry is followed by its recorded inhibition at 10 µM result.
{"columns": ["Molecule", "inhibition at 10 µM"],
 "data": [
  ["Nc1nc(OCC2CCCCC2)c2nn[nH]c2n1 [Compound 86]", "13%"],
  ["NS(=O)(=O)c1ccc(Nc2cc(OCC3CCCCC3)c3nc[nH]c3n2)cc1 [Compound 83]", "37%"]
]}

Query: Determine its reported inhibition at 10 µM: Nc1nc(OCC2CCCCC2)c2cn[nH]c2n1 [Compound 87]
Response: 16%

Query: Determine its reported inhibition at 10 µM: Nc1nc(OCC2CCCCC2)c2cc[nH]c2n1 [Compound 93]
Response: 5.1%

---

Observed pIC50 values for CDK5 (Homo sapiens) are listed in what follows.
Quick note: pIC50 values are minus log10 of concentrations in mol/L.

Below, each entry is followed by its recorded pIC50 result.
{"columns": ["Compound", "pIC50"],
 "data": [
  ["NS(=O)(=O)c1ccc(Nc2nc(OCC3CCCCC3)c3cc[nH]c3n2)cc1 [Compound 98]", 5.36],
  ["NS(=O)(=O)c1ccc(Nc2nc(OCC3CCCCC3)c3cn[nH]c3n2)cc1 [Compound 91]", 5.23]
]}

Please find the next compound below.
Query: Enter recorded pIC50 with CDK5 (Homo sapiens) for NS(=O)(=O)c1ccc(Nc2nc(OCC3CCCCC3)c3nn[nH]c3n2)cc1 [Compound 90] here.
Response: 5.48

---

Reported inhibition at 10 µM values for the following compounds.
Target of assay: CDK4/D (Homo sapiens, UniProt P11802)
Sequence (P11802 whole entry): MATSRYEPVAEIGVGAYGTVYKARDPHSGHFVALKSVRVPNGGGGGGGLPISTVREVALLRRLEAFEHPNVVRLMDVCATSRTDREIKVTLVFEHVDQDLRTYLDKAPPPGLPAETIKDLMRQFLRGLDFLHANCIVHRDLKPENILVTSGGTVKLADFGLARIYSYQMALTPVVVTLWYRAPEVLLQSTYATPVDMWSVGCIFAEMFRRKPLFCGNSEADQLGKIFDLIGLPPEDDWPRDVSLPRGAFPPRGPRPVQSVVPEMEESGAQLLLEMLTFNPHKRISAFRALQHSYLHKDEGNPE
Sequence (P24385 whole entry partner): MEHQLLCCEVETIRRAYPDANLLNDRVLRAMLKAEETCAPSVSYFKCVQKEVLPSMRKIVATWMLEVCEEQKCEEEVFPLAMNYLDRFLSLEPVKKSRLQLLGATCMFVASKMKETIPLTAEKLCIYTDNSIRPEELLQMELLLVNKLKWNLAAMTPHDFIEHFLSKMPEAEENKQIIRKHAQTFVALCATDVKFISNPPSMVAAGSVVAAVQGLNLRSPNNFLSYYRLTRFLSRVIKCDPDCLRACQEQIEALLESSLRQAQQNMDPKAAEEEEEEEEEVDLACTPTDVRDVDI
Protocol summary: biochemical
Conditions: read-out: CDK4 Inhibition at 10 μM (%)
Report as a plain number; the unit % is understood.

{"columns": ["Smiles record", "inhibition at 10 µM [%]"],
 "data": [
  ["NS(=O)(=O)c1ccc(Nc2cc(OCC3CCCCC3)c3nc[nH]c3n2)cc1", 23],
  ["Nc1nc(OCC2CCCCC2)c2cn[nH]c2n1", 0],
  ["Nc1nc(OCC2CCCCC2)c2nn[nH]c2n1", 6.2]
]}

Query: Determine its reported inhibition at 10 µM: Nc1nc(OCC2CCCCC2)c2cc[nH]c2n1
Response: 5.6

---

Target of assay: CDK2/A (Homo sapiens)
Conditions: read-out: CDK2 Inhibition IC50; Table 1; ATP 12.5 μM
Observable: log10 of IC50 (log10 of the value in nM)
Use the decimal logarithm of IC50 (nM).

{"columns": ["Compound", "Observable", "Endpoint value"],
 "data": [
  ["NS(=O)(=O)c1ccc(Nc2nc(-c3cccc4c3Sc3ccccc3S4)c3nc[nH]c3n2)cc1", "log10 of IC50", 3.83],
  ["C(#Cc1nc(Nc2ccccc2)nc2[nH]cnc12)c1ccccc1", "log10 of IC50", 3.95],
  ["NS(=O)(=O)c1ccc(Nc2nc(-c3cccc4c3oc3ccccc34)c3nc[nH]c3n2)cc1", "log10 of IC50", 3.15],
  ["CCC(C)Oc1nc(Nc2ccc(S(N)(=O)=O)cc2)nc2[nH]cnc12 (racemic)", "log10 of IC50", 0.00],
  ["NS(=O)(=O)c1ccc(Nc2nc(-c3ccccc3)c3nc[nH]c3n2)cc1", "log10 of IC50", 1.38]
]}

Query: Determine its reported log10 of IC50: CC#Cc1nc(Nc2ccccc2)nc2[nH]cnc12
Response: 3.81

Query: Determine its reported log10 of IC50: NS(=O)(=O)c1ccc(Nc2nc(-c3ccc4c(c3)OCO4)c3nc[nH]c3n2)cc1
Response: 2.76

Query: Determine its reported log10 of IC50: NS(=O)(=O)c1ccc(Nc2nc(-c3cccc(-c4ccccc4)c3)c3nc[nH]c3n2)cc1
Response: 1.64

---

Target of assay: CDK9/T (Homo sapiens)
Conditions: read-out: CDK9/T IC50; Table 2; ATP 100 μM
Reported IC50 values for the following compounds.
Report as a plain number; the unit µM is understood.

Below, each entry is followed by its recorded IC50 result.
{"columns": ["Compound", "IC50 / µM"],
 "data": [
  ["NS(=O)(=O)c1ccc(Nc2nc(-c3cccc(-c4ccccc4)c3)c3nc[nH]c3n2)cc1 [Compound 73]", 25],
  ["NS(=O)(=O)c1ccc(Nc2ncc3nc[nH]c3n2)cc1 [Compound 13, 4-(9H-Purin-2-ylamino)benzenesulfonamide]", 38],
  ["CCC(C)Oc1nc(Nc2ccc(S(N)(=O)=O)cc2)nc2[nH]cnc12 (racemic) [Compound 34]", 0.57]
]}

Please find the next compound below.
Query: Determine its reported IC50: NS(=O)(=O)c1ccc(Nc2nc(-c3ccccc3)c3nc[nH]c3n2)cc1 [Compound 70]
Response: 0.57

---

Target of assay: CDK2/A (Homo sapiens)
Conditions: read-out: CDK2/A IC50; Table 2; ATP 12.5 μM
Observable: pIC50
Quick note: pIC50 values are minus log10 of concentrations in mol/L.

Query: Determine its reported pIC50: CCC(C)Oc1nc(Nc2ccc(S(N)(=O)=O)cc2)nc2[nH]cnc12 (racemic)
Response: 8.92

---

Target of assay: CDK2/A (Homo sapiens)
Conditions: read-out: CDK2 Inhibition IC50; Table 1; ATP 12.5 μM
Observable: IC50

Query: Determine its reported IC50: COc1ccc(-c2nc(Nc3ccc(S(N)(=O)=O)cc3)nc3[nH]cnc23)cc1
Response: 52 nM

Query: Determine its reported IC50: NS(=O)(=O)c1ccc(Nc2ncc3nc[nH]c3n2)cc1 [Compound 13, 4-(9H-Purin-2-ylamino)benzenesulfonamide]
Response: 1500 nM

Query: Determine its reported IC50: NS(=O)(=O)c1ccc(Nc2nc(C3CC3)c3nc[nH]c3n2)cc1
Response: 19 nM
